- Tested on: HT-29
- experiment.description: Antiproliferative activity against human HT-29 cells assessed as cell growth inhibition after 72 hrs by MTT assay
- Format: functional, cell-based
- run.parameters: HT-29, 72 h
Lab note: compare IC50 with 6 µM, writing class 1 if less and class 0 if equal or more.

Query: Take the compound CNC(=O)c1cc(Oc2ccc(NC(=O)Nc3ccc(Cl)c(C(F)(F)F)c3)cc2)ccn1 [SORAFENIB] and say whether its IC50 is less than 6 µM.
Response: class 1

Query: # TODO verify IC50 < 6 µM strictly for this compound: `Cc1ccc(NC(=O)Cn2cc(-c3ccc4c(N)n[nH]c4c3)cn2)cc1C(F)(F)F`
Response: class 1

Query: Does the reported IC50 of `Cc1ccc(NC(=O)Cn2cc(-c3ccc4c(NCC5CC5)n[nH]c4c3)cn2)cc1C(F)(F)F` stay below 6 µM?
Response: class 0

Query: Lab log: compare recorded IC50 with 6 µM; is it strictly lower for `CC(=O)Nc1n[nH]c2cc(-c3cnn(CC(=O)Nc4ccc(C)c(C(F)(F)F)c4)c3)ccc12` ?
Response: class 1

Query: Consider the compound `Cc1ccc(NC(=O)Cn2cc(-c3ccc4c(NC(=O)C(C)C)n[nH]c4c3)cn2)cc1C(F)(F)F` . Is its IC50 strictly less than 6 µM?
Response: class 1

Query: Regarding `Cc1ccc(NC(=O)Cc2cccc(-c3ccc4c(NC(=O)C5CC5)n[nH]c4c3)c2)cc1C(F)(F)F` , kindly confirm whether its IC50 is beneath 6 µM.
Response: class 0

Query: For `O=C(Cn1cc(-c2ccc3c(NC(=O)C4CC4)n[nH]c3c2)cn1)Nc1ccc(Cl)c(C(F)(F)F)c1` , is the recorded IC50 below the cut-off of 6 µM?
Response: class 1

Query: is_below(IC50, 6 µM) for `Cc1ccc(NC(=O)Cc2ccc(-c3ccc4c(NC(=O)C5CC5)n[nH]c4c3)cc2)cc1C(F)(F)F` ?
Response: class 0

Query: I wonder whether `CNS(=O)(=O)c1cc(Nc2n[nH]c3cc(-c4cnn(CC(=O)Nc5ccc(Cl)c(C(F)(F)F)c5)c4)ccc23)ccc1C` has IC50 below 6 µM. Can you tell?
Response: class 1

Query: hey, is IC50 for `Nc1n[nH]c2cc(-c3cnn(CC(=O)Nc4ccc(Cl)c(C(F)(F)F)c4)c3)ccc12` lower than 6 µM or not?
Response: class 1

Query: hey, is IC50 for `Cc1ccc(NC(=O)Cn2cc(-c3ccc4c(NC(=O)C5CCN(C)CC5)n[nH]c4c3)cn2)cc1C(F)(F)F` lower than 6 µM or not?
Response: class 1

Query: State whether 6 µM exceeds IC50 recorded for `Cc1ccc(NC(=O)Cn2cc(-c3ccc4c(NC(=O)C5CC5)n[nH]c4c3)nn2)cc1C(F)(F)F` .
Response: class 0

Query: Threshold test, IC50 < 6 µM: `Cc1ccc(NC(=O)Cc2ccc(-c3ccc4c(NC(=O)C5CC5)n[nH]c4c3)s2)cc1C(F)(F)F`
Response: class 0

Query: Bench note: check whether `CCNc1n[nH]c2cc(-c3cnn(CC(=O)Nc4ccc(C)c(C(F)(F)F)c4)c3)ccc12` shows IC50 below 6 µM
Response: class 0

Query: I wonder whether `Nc1n[nH]c2cc(-c3cnn(CC(=O)Nc4cccc(C(F)(F)F)c4)c3)ccc12` has IC50 below 6 µM. Can you tell?
Response: class 1

Query: Consider `Cc1ccc(NC(=O)Cn2cc(-c3ccc4c(NC(=O)c5cccnc5)n[nH]c4c3)cn2)cc1C(F)(F)F` . Does its IC50 lie strictly below 6 µM?
Response: class 0

Query: Bench note: check whether `CS(=O)(=O)Cc1cccc(Nc2n[nH]c3cc(-c4cnn(CC(=O)Nc5ccc(Cl)c(C(F)(F)F)c5)c4)ccc23)c1` shows IC50 below 6 µM
Response: class 1

Query: Consider `Cc1ccc(NC(=O)Cn2cc(-c3ccc4c(NC(=O)C5CC5)n[nH]c4c3)c(C)n2)cc1C(F)(F)F` . Does its IC50 lie strictly below 6 µM?
Response: class 0

Query: Quick check: does `O=C(Cn1cc(-c2ccc3c(NC(=O)C4CC4)n[nH]c3c2)cn1)Nc1cc(C(F)(F)F)ccc1F` have IC50 under 6 µM?
Response: class 1

Query: Does the reported IC50 of `Cn1cc(Nc2n[nH]c3cc(-c4cnn(CC(=O)Nc5ccc(Cl)c(C(F)(F)F)c5)c4)ccc23)cn1` stay below 6 µM?
Response: class 0

Query: Does `Cc1ccc(NC(=O)Cn2cc(-c3ccc4c(NC(=O)C5CC5)n[nH]c4c3)cn2)cc1C(F)(F)F` have IC50 strictly under 6 µM?
Response: class 1

Query: Threshold test, IC50 < 6 µM: `Cc1ccc(NC(=O)Cn2cc(-c3ccc4c(NC(=O)C5CCCC5)n[nH]c4c3)cn2)cc1C(F)(F)F`
Response: class 1

---

- Test system: HGC-27
- experiment.description: Antiproliferative activity against human HGC-27 cells assessed as cell growth inhibition after 72 hrs by MTT assay
- Type: functional, cell-based
- run.parameters: HGC-27, 72 h
measured.metric: pIC50
Worth noting: pIC50 values are minus log10 of concentrations stated in mol/L.

Query: # get_value(readout= pIC50, system= HGC-27) for `Cc1ccc(NC(=O)Cn2cc(-c3ccc4c(NCC5CC5)n[nH]c4c3)cn2)cc1C(F)(F)F`
Response: 5.91

Query: Give the reported pIC50 for `O=C(Cn1cc(-c2ccc3c(NC(=O)C4CC4)n[nH]c3c2)cn1)Nc1cc(C(F)(F)F)ccc1F` (system: HGC-27).
Response: 5.43

Query: Find pIC50 (HGC-27) for the entry `Cc1ccc(NC(=O)Cn2cc(-c3ccc4c(NC(=O)C5CC5)n[nH]c4c3)cn2)cc1C(F)(F)F`
Response: 6.20

Query: API: value(readout=pIC50, system=HGC-27) for record `Nc1n[nH]c2cc(-c3cnn(CC(=O)Nc4cc(C(F)(F)F)ccc4F)c3)ccc12`
Response: 4.81

Query: Lab request: please report pIC50 under test system HGC-27 for `Nc1n[nH]c2cc(-c3cnn(CC(=O)Nc4cccc(C(F)(F)F)c4)c3)ccc12`
Response: 4.99

Query: Any idea what pIC50 came out for `CCNc1n[nH]c2cc(-c3cnn(CC(=O)Nc4ccc(C)c(C(F)(F)F)c4)c3)ccc12` on HGC-27?
Response: 5.92

Query: # returns recorded pIC50 (system: HGC-27) for `Cc1ccc(NC(=O)Cn2cc(-c3ccc4c(NC(=O)C5CCN(C)CC5)n[nH]c4c3)cn2)cc1C(F)(F)F`
Response: 6.80

Query: HGC-27 / pIC50 / `O=C(Cn1cc(-c2ccc3c(Nc4cccnc4)n[nH]c3c2)cn1)Nc1ccc(Cl)c(C(F)(F)F)c1` : value?
Response: 5.44

Query: Could you share what pIC50 was measured for `Cc1ccc(NC(=O)Cc2ccc(-c3ccc4c(NC(=O)C5CC5)n[nH]c4c3)cc2)cc1C(F)(F)F` , tested on HGC-27?
Response: 4.47

Query: Value wanted: pIC50 (HGC-27) of entry `O=C(Cn1cc(-c2ccc3c(NC(=O)C4CC4)n[nH]c3c2)cn1)Nc1ccc(Cl)c(C(F)(F)F)c1`
Response: 5.98

Query: Request body: readout pIC50, system HGC-27, query `CNC(=O)c1cc(Oc2ccc(NC(=O)Nc3ccc(Cl)c(C(F)(F)F)c3)cc2)ccn1` . Return the value.
Response: 5.28

Query: Param readout = pIC50; param system = HGC-27; param query = `Cc1ccc(NC(=O)Cn2cc(-c3ccc4c(N)n[nH]c4c3)cn2)cc1C(F)(F)F` ; response: value
Response: 5.30

Query: Find pIC50 (HGC-27) for the entry `Cc1ccc(NC(=O)Cn2nc(C)c(-c3ccc4c(NC(=O)C5CC5)n[nH]c4c3)c2C)cc1C(F)(F)F`
Response: 5.55

Query: Record lookup: for HGC-27, what pIC50 belongs to `Cc1ccc(NC(=O)Cn2cc(-c3ccc4c(NC(=O)c5cccnc5)n[nH]c4c3)cn2)cc1C(F)(F)F` ?
Response: 5.93

Query: pIC50 of `CS(=O)(=O)Cc1cccc(Nc2n[nH]c3cc(-c4cnn(CC(=O)Nc5ccc(Cl)c(C(F)(F)F)c5)c4)ccc23)c1` on HGC-27?
Response: 5.90

Query: Query the reported pIC50 for HGC-27; item: `Cc1ccc(NC(=O)Cn2cc(-c3ccc4c(NC(=O)c5cnn(C)c5)n[nH]c4c3)cn2)cc1C(F)(F)F`
Response: 7.68

---

- Tested on: GES1
- experiment.description: Cytotoxicity against human GES-1 cells assessed as inhibition of cell growth incubated for 72 hrs by MTT assay
- Type: cell-based
- run.parameters: GES1, 72 h
measured.metric: IC50 (µM)
Use µM as the unit, but write only the number.

Query: Request body: readout IC50, system GES1, query `CS(=O)(=O)Cc1cccc(Nc2n[nH]c3cc(-c4cnn(CC(=O)Nc5ccc(Cl)c(C(F)(F)F)c5)c4)ccc23)c1` . Return the value.
Response: 17.7

Query: Give GES1 IC50 for `Cc1ccc(NC(=O)Cn2cc(-c3ccc4c(N)n[nH]c4c3)cn2)cc1C(F)(F)F`
Response: 6.96

Query: Hello, I am looking for reported IC50 with GES1 for `Cc1ccc(NC(=O)Cn2cc(-c3ccc4c(NC(=O)C5CCN(C)CC5)n[nH]c4c3)cn2)cc1C(F)(F)F` . Could you help?
Response: 5.31

Query: Requested read-out IC50, target or system GES1, entry `CC(=O)Nc1n[nH]c2cc(-c3cnn(CC(=O)Nc4ccc(C)c(C(F)(F)F)c4)c3)ccc12`
Response: 187

Query: For GES1, provide IC50 of `Cc1ccc(NC(=O)Cn2cc(-c3ccc4c(NC(=O)c5cnn(C)c5)n[nH]c4c3)cn2)cc1C(F)(F)F` please.
Response: 1.67

Query: What value of IC50 on GES1 does `Cc1ccc(NC(=O)Cn2cc(-c3ccc4c(NC(=O)c5cccnc5)n[nH]c4c3)cn2)cc1C(F)(F)F` have?
Response: 8.46

Query: Param readout= IC50; system= GES1; entry= `Cc1ccc(NC(=O)Cn2cc(-c3ccc4c(NC(=O)C5CCCC5)n[nH]c4c3)cn2)cc1C(F)(F)F` ; returns value.
Response: 0.75

Query: Any idea what IC50 came out for `Cn1cc(Nc2n[nH]c3cc(-c4cnn(CC(=O)Nc5ccc(Cl)c(C(F)(F)F)c5)c4)ccc23)cn1` on GES1?
Response: 13.3

Query: What measured IC50 is associated with `Cn1cc2ccc(Nc3n[nH]c4cc(-c5cnn(CC(=O)Nc6ccc(Cl)c(C(F)(F)F)c6)c5)ccc34)cc2n1` on GES1?
Response: 10

Query: Checklist item: IC50 tested on GES1, entry `O=C(Cn1cc(-c2ccc3c(NC(=O)C4CC4)n[nH]c3c2)cn1)Nc1ccc(Cl)c(C(F)(F)F)c1` , value?
Response: 29.8

Query: Please provide the recorded IC50 for `CNC(=O)c1cc(Oc2ccc(NC(=O)Nc3ccc(Cl)c(C(F)(F)F)c3)cc2)ccn1` , tested on GES1.
Response: 9.59

Query: Given the entry `CNS(=O)(=O)c1cc(Nc2n[nH]c3cc(-c4cnn(CC(=O)Nc5ccc(Cl)c(C(F)(F)F)c5)c4)ccc23)ccc1C` , what IC50 was observed with GES1?
Response: 3.37

Query: Short answer please: IC50, GES1, entry `Cc1ccc(NC(=O)Cc2ccc(-c3ccc4c(NC(=O)C5CC5)n[nH]c4c3)s2)cc1C(F)(F)F`
Response: 13.9

Query: Quick check: IC50 on GES1, item `Cc1ccc(NC(=O)Cn2cc(-c3ccc4c(NC(=O)C5CC5)n[nH]c4c3)c(C)n2)cc1C(F)(F)F` ?
Response: 3.09

Query: Request: IC50, test system GES1, entry `CCNc1n[nH]c2cc(-c3cnn(CC(=O)Nc4ccc(C)c(C(F)(F)F)c4)c3)ccc12`
Response: 1.9

Query: // fetch GES1 IC50 for `Cc1ccc(NC(=O)Cn2cc(-c3ccc4c(NC(=O)C5CC5)n[nH]c4c3)cn2)cc1C(F)(F)F`
Response: 4.24

Query: Request body: readout IC50, system GES1, query `Nc1n[nH]c2cc(-c3cnn(CC(=O)Nc4cccc(C(F)(F)F)c4)c3)ccc12` . Return the value.
Response: 22.3
